tested on: MCF7S; experiment: Inhibitory activity against MCF-7 cells after 72 hr cell growth; format: functional, cell-based; conditions: Homo sapiens
MEASURE_NAME: IC50 (nM)
All answers are understood in nM, so give the number only.

Identify IC50 associated with the compound "COc1ccc(C[C@H]2NC(=O)/C=C/C[C@@H]([C@H](C)[C@@H]3O[C@@H]3c3ccc(C(=O)c4ccccc4)cc3)OC(=O)[C@H](CC(C)C)OC(=O)CCNC2=O)cc1" 6

Identify IC50 associated with the compound "COc1ccc(C[C@H]2NC(=O)/C=C/C[C@@H]([C@H](C)[C@H]3O[C@@H]3c3ccccc3)OC(=O)[C@H](CC(C)C)OC(=O)CCNC2=O)cc1" 0.13

Identify IC50 associated with the compound "COc1ccc(C[C@H]2NC(=O)/C=C/C[C@@H]([C@H](C)[C@H]3O[C@@H]3c3ccc(C(=O)c4ccccc4)cc3)OC(=O)[C@H](CC(C)C)OC(=O)CCNC2=O)cc1" 0.078

Identify IC50 associated with the compound "COc1ccc(C[C@H]2NC(=O)/C=C/C[C@@H]([C@H](C)[C@H]3O[C@@H]3c3ccccc3)OC(=O)[C@H](CC(C)C)OC(=O)[C@H](C)CNC2=O)cc1Cl" 0.003
